The reader will find reported self-cleavage kobs at 160 uM GlcN6P values listed item by item below.
B1: glmS ribozyme (parent)
chain: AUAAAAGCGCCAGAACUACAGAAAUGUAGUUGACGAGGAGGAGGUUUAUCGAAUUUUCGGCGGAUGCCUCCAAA

Variants of: B1
Assay: self-cleavage kobs at 160 uM GlcN6P; higher = faster cleavage; RNA array
Conditions: with glucosamine-6-phosphate
Variants at the floor of the assay were thinned out.
TEST_READOUT: self-cleavage kobs at 160 uM GlcN6P

| MUTATION_NAME | MEASURED_RESULT |
| --- | --- |
| G59C G62U | < 1e-05 s⁻¹ |
| A52G G62C | < 1e-05 s⁻¹ |
| U30G C67A | 0.000175 s⁻¹ |
| G41A U46G | 6.59e-05 s⁻¹ |
| G29U G38A | < 1e-05 s⁻¹ |
| C11U U56A G66A | 4.3e-05 s⁻¹ |
| A6C G43C | < 1e-05 s⁻¹ |
| G7U A12G U45C U46G C71U | < 1e-05 s⁻¹ |
| C70G C71A | 8.13e-05 s⁻¹ |
| U46G U56G C70U | 0.000211 s⁻¹ |
| C8U A33G G37U G43C U54A U56C C67U | < 1e-05 s⁻¹ |
| G13A U46G | < 1e-05 s⁻¹ |
| G9A A15G | < 1e-05 s⁻¹ |
| G13A G37C | < 1e-05 s⁻¹ |
| G41U U65A C68G | < 1e-05 s⁻¹ |
| G35C U65C G66A | < 1e-05 s⁻¹ |
| G32C G35A A48U A52U U54C C67U | < 1e-05 s⁻¹ |
| U31A C50G | 0.000119 s⁻¹ |
| G29U G32U A64U | < 1e-05 s⁻¹ |
| G44C G51A | < 1e-05 s⁻¹ |
| A36C A52C C70U | < 1e-05 s⁻¹ |
| A39C C61U C71U | < 1e-05 s⁻¹ |
| C8A C67U | < 1e-05 s⁻¹ |
| A33G U45G U69A | < 1e-05 s⁻¹ |
| C16U C67U | 0.000412 s⁻¹ |
| A12G G40U G62C | < 1e-05 s⁻¹ |
| C11G U55G | < 1e-05 s⁻¹ |
| C10A C34G A36G A39C U65A | < 1e-05 s⁻¹ |
| G41A U49A | < 1e-05 s⁻¹ |
| U30C C70G | 5.73e-05 s⁻¹ |
| A39U G40A A64G | 0.000419 s⁻¹ |
| A15G U47G | 0.000812 s⁻¹ |
| C11U U30A | 0.000252 s⁻¹ |
| U31G U46A | 0.000124 s⁻¹ |
| C16U A52G | 9.03e-05 s⁻¹ |
| C16A G29U | 0.00212 s⁻¹ |
| G51C U57G | < 1e-05 s⁻¹ |
| A6U G41C | < 1e-05 s⁻¹ |
| C8G A14G A15U G41C U47G U56A | < 1e-05 s⁻¹ |
| G44U C58G C68U | < 1e-05 s⁻¹ |
| A14G C70U | 0.00502 s⁻¹ |
| G35U U46A C58U | < 1e-05 s⁻¹ |
| G9U G29C | < 1e-05 s⁻¹ |
| C11U G41C A52U | < 1e-05 s⁻¹ |
| C11U A42G U54A | 3.87e-05 s⁻¹ |
| A14U U30A A33U G51A | < 1e-05 s⁻¹ |
